// provenance: patent US20250163162A1

Kindly supply the reported Granzyme B secretion, CD8 T cells, at 10 µM values for the records listed here.
# target: T1, IL10Rα/IL2Rγ receptor (human) (UniProt Q13651)
# T1 sequence (looked up) 1: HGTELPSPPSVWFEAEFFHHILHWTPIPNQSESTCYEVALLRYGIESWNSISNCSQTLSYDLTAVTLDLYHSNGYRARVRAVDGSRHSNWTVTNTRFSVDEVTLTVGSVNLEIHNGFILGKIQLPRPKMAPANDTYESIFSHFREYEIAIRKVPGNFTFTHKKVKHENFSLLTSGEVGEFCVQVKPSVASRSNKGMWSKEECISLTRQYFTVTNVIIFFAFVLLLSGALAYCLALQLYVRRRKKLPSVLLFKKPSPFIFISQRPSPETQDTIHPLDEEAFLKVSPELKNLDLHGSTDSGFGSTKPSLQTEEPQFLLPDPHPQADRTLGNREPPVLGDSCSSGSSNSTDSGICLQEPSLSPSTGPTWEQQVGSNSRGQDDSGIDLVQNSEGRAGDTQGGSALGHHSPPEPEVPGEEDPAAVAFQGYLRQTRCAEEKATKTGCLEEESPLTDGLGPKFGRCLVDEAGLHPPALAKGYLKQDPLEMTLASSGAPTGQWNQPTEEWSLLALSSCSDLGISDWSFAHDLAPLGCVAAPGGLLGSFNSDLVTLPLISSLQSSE
# T1 sequence (looked up) 2: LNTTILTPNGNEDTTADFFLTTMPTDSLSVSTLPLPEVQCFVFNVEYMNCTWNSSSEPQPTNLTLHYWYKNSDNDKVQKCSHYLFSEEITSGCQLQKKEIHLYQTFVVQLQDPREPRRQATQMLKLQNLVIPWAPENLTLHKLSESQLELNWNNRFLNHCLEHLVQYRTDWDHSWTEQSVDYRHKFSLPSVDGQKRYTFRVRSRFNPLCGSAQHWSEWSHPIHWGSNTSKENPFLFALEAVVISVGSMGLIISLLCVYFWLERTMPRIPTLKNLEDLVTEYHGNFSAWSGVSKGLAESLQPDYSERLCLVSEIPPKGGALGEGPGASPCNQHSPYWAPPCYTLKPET
# test: cell-based or functional assay
State the answer as a number, implicitly in pg/mL.

Input: Request the reported Granzyme B secretion, CD8 T cells, at 10 µM associated with hIL10Ra_VHH14 - hIL2Rg_VHH19, linker GGGSGGGS, tag his (bispecific antibody, not shown: small tags and cut ends) QVQLQESGGGSVQAGGSLRLSCGASGYTYSSYCMGWFRQVPGKEREGVAVIDSDGSTSYADSVKGRFTISKDNGKNTLYLQMNSLKPEDTAMYYCAADLGHYRPPCGVLYLGMDYWGKGTQVTVSSGGGSGGGSQVQLQESGGGSVQAGGSLRLSCTASGFTFDDREMNWYRQAPGNECELVSTISSDGSTYYADSVKGRFTISQDNAKNTVYLQMDSVKPEDTAVYYCAADFMIAIQAPGAGCWGQGTQVTVSS
Output: 83500

Input: I am curious: what Granzyme B secretion, CD8 T cells, at 10 µM value has been reported for hIL10Ra_VHH14 - hIL2Rg_VHH19, linker GS, tag his (bispecific antibody, not shown: small tags and cut ends) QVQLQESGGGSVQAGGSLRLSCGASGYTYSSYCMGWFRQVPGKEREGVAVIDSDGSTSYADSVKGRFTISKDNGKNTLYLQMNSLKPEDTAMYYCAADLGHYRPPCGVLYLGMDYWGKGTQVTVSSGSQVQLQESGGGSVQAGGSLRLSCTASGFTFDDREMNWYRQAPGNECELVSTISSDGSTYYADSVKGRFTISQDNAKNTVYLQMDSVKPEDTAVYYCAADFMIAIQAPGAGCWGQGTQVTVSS ?
Output: 87000

Input: Entry hIL10Ra_VHH14 - hIL2Rg_VHH19, linker GGSGGS, tag his (bispecific antibody, not shown: small tags and cut ends) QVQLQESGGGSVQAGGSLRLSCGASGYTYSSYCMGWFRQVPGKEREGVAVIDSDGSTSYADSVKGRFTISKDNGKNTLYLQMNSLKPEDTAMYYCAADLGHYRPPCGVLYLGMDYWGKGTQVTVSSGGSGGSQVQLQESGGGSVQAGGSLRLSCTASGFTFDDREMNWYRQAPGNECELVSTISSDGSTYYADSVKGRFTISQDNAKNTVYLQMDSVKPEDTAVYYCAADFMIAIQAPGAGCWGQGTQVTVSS : reported Granzyme B secretion, CD8 T cells, at 10 µM = ?
Output: 90000

Input: For the binder hIL10Ra_VHH14 - hIL2Rg_VHH19, linker GGGS, tag Fc (bispecific antibody, not shown: a dimerising Fc or GST) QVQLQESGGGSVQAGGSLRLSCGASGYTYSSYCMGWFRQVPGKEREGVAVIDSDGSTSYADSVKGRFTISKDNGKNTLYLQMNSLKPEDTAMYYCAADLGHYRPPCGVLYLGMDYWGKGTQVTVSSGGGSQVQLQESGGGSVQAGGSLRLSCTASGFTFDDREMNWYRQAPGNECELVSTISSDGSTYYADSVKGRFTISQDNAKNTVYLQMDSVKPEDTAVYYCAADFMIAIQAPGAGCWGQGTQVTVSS , what Granzyme B secretion, CD8 T cells, at 10 µM is on record?
Output: 151000

Input: So what's the measured Granzyme B secretion, CD8 T cells, at 10 µM for this one? hIL10Ra_VHH14 - hIL2Rg_VHH19, No linker, tag his (bispecific antibody, not shown: small tags and cut ends) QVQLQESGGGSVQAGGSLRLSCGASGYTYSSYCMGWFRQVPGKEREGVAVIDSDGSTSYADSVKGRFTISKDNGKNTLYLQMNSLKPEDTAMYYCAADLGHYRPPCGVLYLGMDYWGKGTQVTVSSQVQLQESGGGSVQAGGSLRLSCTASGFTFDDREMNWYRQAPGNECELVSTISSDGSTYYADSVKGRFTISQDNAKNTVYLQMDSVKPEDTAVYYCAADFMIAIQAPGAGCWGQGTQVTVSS
Output: 67100

Input: Entry hIL10Ra_VHH14 - hIL2Rg_VHH19, linker GGGS, tag his (bispecific antibody, not shown: small tags and cut ends) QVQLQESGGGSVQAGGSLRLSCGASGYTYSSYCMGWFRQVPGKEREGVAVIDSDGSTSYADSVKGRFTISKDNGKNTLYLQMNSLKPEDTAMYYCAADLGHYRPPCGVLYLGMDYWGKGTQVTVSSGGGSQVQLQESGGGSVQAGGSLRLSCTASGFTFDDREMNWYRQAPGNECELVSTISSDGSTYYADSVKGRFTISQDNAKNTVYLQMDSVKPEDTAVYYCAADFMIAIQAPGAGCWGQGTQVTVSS has what Granzyme B secretion, CD8 T cells, at 10 µM?
Output: 84700

Input: Value lookup for Granzyme B secretion, CD8 T cells, at 10 µM; key = hIL10Ra_VHH14 - hIL2Rg_VHH19, linker …, tag his (bispecific antibody, not shown: small tags and cut ends) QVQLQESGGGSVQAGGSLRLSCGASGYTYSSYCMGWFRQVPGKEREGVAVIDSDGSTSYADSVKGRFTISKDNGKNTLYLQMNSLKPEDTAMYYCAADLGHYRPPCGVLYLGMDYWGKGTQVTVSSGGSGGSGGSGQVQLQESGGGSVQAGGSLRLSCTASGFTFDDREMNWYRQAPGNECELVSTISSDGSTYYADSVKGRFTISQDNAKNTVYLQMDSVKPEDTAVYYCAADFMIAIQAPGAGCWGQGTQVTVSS
Output: 125000
